The measured values listed here are drawn from paper PMC3958311.

- testDescription: in vivo
- assayConditions: female, mouse, in vivo, po, 25 mg/kg
Exercise: for every item that follows, state its recorded half-life.
Number first, unit second: that is the form wanted.

So what does the record say about half-life for O=c1nc(N2CCN(CC3CCCCC3)CC2)sc2c([N+](=O)[O-])cc(C(F)(F)F)cc12 [PBTZ169] ?
1.85 h

# iterate: C[C@H]1COC2(CCN(c3nc(=O)c4cc(C(F)(F)F)cc([N+](=O)[O-])c4s3)CC2)O1 [BTZ043]
1.67 h

---

Exercise: for every item that follows, state its recorded microsomal CLint.
- testDescription: in vitro
- assayConditions: mouse, microsomes
Use µL/min/mg as the unit, but write only the number.

So what does the record say about microsomal CLint for NC(=O)N1c2ccccc2C=Cc2ccccc21 [Carbamazepine] ?
1.1

# iterate: C[C@H]1COC2(CCN(c3nc(=O)c4cc(C(F)(F)F)cc([N+](=O)[O-])c4s3)CC2)O1 [BTZ043]
12.2

# iterate: O=c1nc(N2CCN(CC3CCCCC3)CC2)sc2c([N+](=O)[O-])cc(C(F)(F)F)cc12 [PBTZ169]
24.3
